- experimental.system: mouse GPR34 (Mus musculus)
- Construct: expressed in transfected cells; host or cells: HEK293
- Sequence (Q9R1K6 whole entry): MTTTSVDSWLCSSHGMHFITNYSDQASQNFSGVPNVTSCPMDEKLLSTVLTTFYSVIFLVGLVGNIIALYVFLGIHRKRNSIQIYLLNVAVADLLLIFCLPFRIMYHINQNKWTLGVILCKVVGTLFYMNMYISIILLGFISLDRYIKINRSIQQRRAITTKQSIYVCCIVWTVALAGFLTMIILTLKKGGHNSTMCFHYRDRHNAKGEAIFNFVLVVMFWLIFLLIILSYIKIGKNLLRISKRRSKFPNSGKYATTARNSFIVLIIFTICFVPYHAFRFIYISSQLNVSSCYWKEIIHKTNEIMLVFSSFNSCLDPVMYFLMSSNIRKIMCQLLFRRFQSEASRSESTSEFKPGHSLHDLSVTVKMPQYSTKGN
- test.protocol: TGFα shedding assay, agonistic activity on GPR34
- Assay type: cell-based
- setup.conditions: HEK293 cells transfected with mouse GPR34 and AP labeled TGFα; activity relative to control compound 1 (LPS18:1) = +++
observed.property: GPR34/LPS2 agonistic activity, TGFα shedding assay

[[record]]
smiles_input = "CCCCCCCCCCCOc1ccccc1CCC(=O)OC[C@H]1OCC=C[C@H]1OP(=O)(O)OC[C@H](N)C(=O)O"
experimental_system = "mouse GPR34 (Mus musculus)"
measured = "+~++"

[[record]]
smiles_input = "CCCCCCCC/C=C\\CCCCCCCC(=O)OC[C@H]1OCC=C[C@@H]1OP(=O)(O)OC[C@H](N)C(=O)O"
experimental_system = "mouse GPR34 (Mus musculus)"
measured = "++"

[[record]]
smiles_input = "CCCCCCCC/C=C\\CCCCCCCC(=O)OC[C@H](C)OP(=O)(O)OC[C@H](N)C(=O)O"
experimental_system = "mouse GPR34 (Mus musculus)"
measured = "+++"

[[record]]
smiles_input = "CCCCCCCCCCCOc1ccc(C(C)(C)C)cc1CCC(=O)O[C@H]1COCC[C@@H]1OP(=O)(O)OC[C@H](N)C(=O)O"
experimental_system = "mouse GPR34 (Mus musculus)"
measured = "−"

[[record]]
smiles_input = "N[C@@H](COP(=O)(O)O[C@H]1C=CCO[C@@H]1COC(=O)CCc1ccccc1OCc1cccc(Oc2ccccc2)c1)C(=O)O"
experimental_system = "mouse GPR34 (Mus musculus)"
measured = "+++"


Now examine the next entry.
Find the recorded GPR34/LPS2 agonistic activity, TGFα shedding assay belonging to N[C@@H](COP(=O)(O)O[C@H]1CCCO[C@@H]1COC(=O)CCc1ccccc1OCc1cccc(Oc2ccccc2)c1)C(=O)O and report it.
+++

###

The entries below are paired with their reported melting point.
Structures can show the parent of a compound that is named as a salt.

Past entries and their recorded results:
[[record]]
molecule = "CCCCCCCC/C=C\\CCCCCCCC(=O)OC[C@H](C)OP(=O)(O)OC[C@H](N)C(=O)O (as salt: TFA) [Example 2]"
observed_property = "melting point"
measured = "133.5 to 134.5 °C"

[[record]]
molecule = "CCCCCCCC/C=C\\CCCCCCCC(=O)OC[C@H](COC)OP(=O)(O)OC[C@H](N)C(=O)O (as salt: TFA) [Example 5]"
observed_property = "melting point"
measured = "149 to 150.5 °C"

[[record]]
molecule = "CCCCCCCCCCCOc1ccccc1CCC(=O)O[C@H]1CCOC[C@@H]1OP(=O)(O)OC[C@H](N)C(=O)O (as salt: TFA) [Example 10]"
observed_property = "melting point"
measured = "96.5 to 98.5 °C"


Now examine the next entry.
Find the recorded melting point belonging to CCCCCCCC/C=C\CCCCCCCC(=O)OC[C@H]1OCCC[C@@H]1OP(=O)(O)OC[C@H](N)C(=O)O (as salt: TFA) [Example 20] and report it.
70 to 80 °C

###

- experimental.system: mouse GPR174 (Mus musculus, UniProt Q3U507)
- Construct: expressed in transfected cells; host or cells: HEK293
- Sequence (Q3U507 whole entry): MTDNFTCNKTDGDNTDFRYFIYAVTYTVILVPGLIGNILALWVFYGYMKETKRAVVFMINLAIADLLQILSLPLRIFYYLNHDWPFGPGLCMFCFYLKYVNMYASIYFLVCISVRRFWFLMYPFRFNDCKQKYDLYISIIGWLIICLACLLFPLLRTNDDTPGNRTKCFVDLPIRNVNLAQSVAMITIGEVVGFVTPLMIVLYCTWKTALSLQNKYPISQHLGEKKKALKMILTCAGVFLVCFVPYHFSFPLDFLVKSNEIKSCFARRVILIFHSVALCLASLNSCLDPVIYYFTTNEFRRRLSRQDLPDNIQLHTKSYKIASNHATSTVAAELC
- test.protocol: TGFα shedding assay, agonistic activity on GPR174
- Type: cell-based
- Set-up: key: an activity that is 100 folds that of control compound 1 as +++++; an activity that is 10 folds that of control compound 1 as ++++; the activity of the control compound 1 (LPS18:1) as +++; an activity that is 1/10 as ++; an activity that is 1/100 as +; an activity below that as −
- setup.conditions: HEK293 cells transfected with mouse GPR174 and AP labeled TGFα; activity relative to control compound 1 (LPS18:1) = +++
observed.property: GPR174/LPS3 agonistic activity, TGFα shedding assay

[[record]]
smiles_input = "CCCCCCCCCCCOc1ccccc1CCC(=O)OC[C@H]1OCCC[C@@H]1OP(=O)(O)OC[C@H](N)C(=O)O"
experimental_system = "mouse GPR174 (Mus musculus, UniProt Q3U507)"
measured = "−"

[[record]]
smiles_input = "CCCCCCCC/C=C\\CCCCCCCC(=O)OC[C@@H](COCC)OP(=O)(O)OC[C@H](N)C(=O)O"
experimental_system = "mouse GPR174 (Mus musculus, UniProt Q3U507)"
measured = "−"

[[record]]
smiles_input = "N[C@@H](COP(=O)(O)O[C@H]1CCCO[C@@H]1COC(=O)CCc1ccccc1OCc1cccc(Oc2ccccc2)c1)C(=O)O"
experimental_system = "mouse GPR174 (Mus musculus, UniProt Q3U507)"
measured = "−"

[[record]]
smiles_input = "CCCCCCCC/C=C\\CCCCCCCC(=O)OC[C@H](C)OP(=O)(O)OC[C@H](N)C(=O)O"
experimental_system = "mouse GPR174 (Mus musculus, UniProt Q3U507)"
measured = "+~++"


Find the recorded GPR174/LPS3 agonistic activity, TGFα shedding assay belonging to C[C@H](COC(=O)CCc1ccccc1OCc1cccc(Oc2ccccc2)c1)OP(=O)(O)OC[C@H](N)C(=O)O and report it.
−

Find the recorded GPR174/LPS3 agonistic activity, TGFα shedding assay belonging to COC[C@H](COC(=O)CCc1ccccc1OCc1cccc(Oc2ccccc2)c1)OP(=O)(O)OC[C@H](N)C(=O)O and report it.
−

Find the recorded GPR174/LPS3 agonistic activity, TGFα shedding assay belonging to CCCCCCCC/C=C\CCCCCCCC(=O)OC[C@@H](COC)OP(=O)(O)OC[C@H](N)C(=O)O and report it.
−

Measured values drawn from patent US9469665B2 for this set.
